Test system: T-47D breast
Assay: NCI tumour cell line growth inhibition, 48 h
quantity kind: TGI

GET /value?item= `CCCN1C(=O)/C(=C/c2ccc(O)cc2)SC1=Nc1ccccc1` &field=TGI returns 50.8 µM

Value of TGI reported for the compound CCOC(=O)C(NC(=O)NCc1ccc(F)cc1)C(F)(F)F (stereo unspecified) is > 100 µM

Kindly note the recorded TGI for Nc1ccn(C2OC(COP(=O)(O)O)C(O)C2O)c(=O)n1 (stereo unspecified) , which is > 100 µM

The compound C[N+]1(C)C2CCC1CC(OC(=O)C(CO)c1ccccc1)C2 (stereo unspecified) showed TGI equal to > 100 µM

Quick note, TGI for O=C1CN2CCC1C/C2=C\c1ccnc2c(Cl)cccc12 (stereo unspecified) landed at > 100 µM

Sample CC(C)[Si](OCC/C=C/C1CCC(=O)C1C(O)C1CCCCC1)(C(C)C)C(C)C (stereo unspecified) ; TGI observed: 33.7 µM

###

Tested on: HT29 colon
Assay: NCI tumour cell line growth inhibition, 48 h
quantity kind: TGI

Form: item CCOC(=O)C1=C(C)C2C3C(=O)NC(=O)C3C1(C)C1C(=O)NC(=O)C21 (stereo not given) ; test system HT29 colon; TGI: > 100 µM

TGI on HT29 colon for O=C(O)c1ccccc1C(=O)OCC1CCCN2CCCCC12 (stereo not given) is > 100 µM

Lab entry: HT29 colon assay, compound CC(C)C1=CC(=O)C(C)(C2=NC(C)(C)CO2)c2ccccc21 (stereo not given) , TGI = > 100 µM

Reported HT29 colon TGI for item O=C(/C=C/C12c3ccccc3C(c3ccccc31)C1C(=O)NC(=O)C12)c1ccco1 (stereo not given) was 5.06 µM

Reported TGI (HT29 colon) for entry O=C(CC1(O)C(=O)Nc2ccccc21)c1ccc(O)cc1O (stereo not given) is > 100 µM

###

Assignment: determine reported TGI for the given molecules.
Tested on: OVCAR-4 ovarian
Experiment: NCI tumour cell line growth inhibition, 48 h
Give the value, in units of µM, as a plain number.

molecule CCCCC1(OC(=O)CCC(=O)O)CCC2(CCC(C)C(C/C=C(C)/C=C/C(O)C(C)/C=C/C(=O)O)O2)OC1CC/C(C)=C/C(=O)O (configuration not stated) , TGI observed: 7.78

Reported TGI ( `O=C(Nc1cccc(-c2nc3ccccc3[nH]2)c1)c1cccc(NC(=O)c2ccco2)c1` ) = 3.1

get_value(item= CCN(CC)CCCC(C)N/C(c1cccc(OC)c1)=c1\c(=O)[nH]n(-c2c3ccccc3nc3ccccc23)c(=O)\c1=C(/NC(C)CCCN(CC)CC)c1cccc(OC)c1 (configuration not stated) , readout=TGI) returns 4.11

Briefly, TGI measured for OC1C=C2C3CN(Cc4cc5c(cc43)OCO5)[C@H]2C[C@@H]1O (some centres not stated) : 25.9

Looking up `O=C1c2scnc2-c2nccc3c2c1nc1ccccc13` , I found its TGI recorded as 2.92

Value of measured TGI for the entry `Cc1c2c(cc3c1[nH]c1ccccc13)C(c1ccc(F)cc1)=NCC2` : 3.12

Quick note, TGI for `CN1CCN(Cc2ccc(NC(=O)c3[nH]ncc3Nc3ccnc4ccsc34)cc2)CC1` landed at 7.47

###

Tested on: MDA-MB-231 breast
Assay: NCI tumour cell line growth inhibition, 48 h
quantity kind: TGI

Item: CCCCC1Cc2cc(OC)ccc2-c2nc3cc(OC)ccc3n21 (stereo unspecified) (tested in a mixture with another compound) | TGI: 25.7 µM

The value of TGI measured for the compound `Cc1ccc(-c2nc3nc(-c4ccc(Cl)cc4)nc(N4CCCNCC4)c3o2)cc1` turned out to be 3.37 µM

Reported TGI ( `O=C(n1[nH]c(=O)n(-c2ccc([N+](=O)[O-])cc2)c1=O)C(Cl)(Cl)Cl` ) = > 75 µM

TGI reported for this compound `O=C(c1cccs1)c1c(C(F)(F)F)n([O-])c2cc(C(F)(F)F)ccc2[n+]1=O` : 0.345 µM

Kindly note the recorded TGI for CCC(C)C(NC(=O)C(CCCCN)NC(=O)C(NC(=O)C(CCC(N)=O)NC(=O)C(CCCNC(=N)N)NC(C)=O)C(C)CC)C(=O)NC(Cc1c[nH]c2ccccc12)C(=O)NC(Cc1ccccc1)C(=O)NC(CCC(N)=O)C(=O)NC(CC(N)=O)C(=O)NC(CCCNC(=N)N)C(=O)NC(CCCNC(=N)N)C(=O)NC(CCSC)C(=O)NC(CCCCN)C(=O)NC(Cc1c[nH]c2ccccc12)C(=O)NC(CCCCN)C(=O)NC(CCCCN)C(N)=O (stereo unspecified) , which is 41.3 µM

Notebook: `O=C(/C=C/c1c(O)c2ccccc2[nH]c1=O)CC(=O)C(=O)Nc1cccc(O)c1` , TGI read as > 100 µM

Data point: O=C(O)c1ccccc1C(=O)OCC1CCCN2CCCCC12 (stereo unspecified) ; TGI = > 100 µM

Looking up OC1C=C2C3CN(Cc4cc5c(cc43)OCO5)[C@H]2C[C@@H]1O (stereo partly specified) , I see its TGI listed as 68.5 µM

Sample `c1ccc2c(c1)n1c(N3CCOCC3)[n+]3ccccc3c1c1c3cccc[n+]3c(N3CCOCC3)n21` ; TGI observed: > 100 µM

Recorded TGI (compound `CCCOc1ccc(/C=C/C2=[N+](CCO)CCO2)cc1` ): > 100 µM

Entry O=C1CN2CCC1C/C2=C\c1ccnc2c(Cl)cccc12 (stereo unspecified) ; TGI = > 100 µM

According to the records, this compound `CCN(CC)CCN1CCN=c2c3cc(OC)ccc3n3cnc4ccc1c2c43` displays TGI of 2.33 µM

For reference, reported TGI for OCC1OC(O)C(N=Cc2ccc3c(c2)OCO3)C(O)C1O (stereo unspecified) stands at > 100 µM

# compound `CCSc1nc(=S)[nH]c2[nH]ncc12` ; its TGI = > 100 µM

// sample `CC(C)CC(=O)OC[n+]1cccc(-c2c(COC(=O)NC(C)C)c(COC(=O)NC(C)C)c3n2CCC3)c1` , its TGI was > 100 µM

Sample `Cc1cc2c(cc1Cl)SC(NNC(=O)c1ccncc1)=NS2(=O)=O` ; TGI observed: > 10 µM

TGI reported for this compound `CC(=O)/C(=C/N1C(=O)CC(=O)NC1=S)C(=O)Nc1ccccc1C` : > 100 µM

Noted for `COc1ccc2c(c1)-c1c(c3ccccc3n1CCN1CCCCC1)CC2` : its TGI reads 31.1 µM

Lab note: measured TGI of CC/C(=C/OC)P1(=O)OC(C)(C)CN1C(C)(C)C (stereo unspecified) was > 100 µM

Item: `O=c1c2c([nH]c3nccn13)CCCC2` | TGI: > 10 µM

Just so you know, measured TGI for `COc1ccc(OC)c2c(=O)cc(-c3ccccc3)[nH]c12` came out at > 100 µM
